Would you mind telling me the reported hERG current change (%, negative = inhibition) at 10uM of each entry?
Target: human ether-à-go-go-related gene (hERG) potassium channel (human);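 note: peak tail current of the secondary pulse compared with the same well before compound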
Sequence (Q12809 whole entry, looked up): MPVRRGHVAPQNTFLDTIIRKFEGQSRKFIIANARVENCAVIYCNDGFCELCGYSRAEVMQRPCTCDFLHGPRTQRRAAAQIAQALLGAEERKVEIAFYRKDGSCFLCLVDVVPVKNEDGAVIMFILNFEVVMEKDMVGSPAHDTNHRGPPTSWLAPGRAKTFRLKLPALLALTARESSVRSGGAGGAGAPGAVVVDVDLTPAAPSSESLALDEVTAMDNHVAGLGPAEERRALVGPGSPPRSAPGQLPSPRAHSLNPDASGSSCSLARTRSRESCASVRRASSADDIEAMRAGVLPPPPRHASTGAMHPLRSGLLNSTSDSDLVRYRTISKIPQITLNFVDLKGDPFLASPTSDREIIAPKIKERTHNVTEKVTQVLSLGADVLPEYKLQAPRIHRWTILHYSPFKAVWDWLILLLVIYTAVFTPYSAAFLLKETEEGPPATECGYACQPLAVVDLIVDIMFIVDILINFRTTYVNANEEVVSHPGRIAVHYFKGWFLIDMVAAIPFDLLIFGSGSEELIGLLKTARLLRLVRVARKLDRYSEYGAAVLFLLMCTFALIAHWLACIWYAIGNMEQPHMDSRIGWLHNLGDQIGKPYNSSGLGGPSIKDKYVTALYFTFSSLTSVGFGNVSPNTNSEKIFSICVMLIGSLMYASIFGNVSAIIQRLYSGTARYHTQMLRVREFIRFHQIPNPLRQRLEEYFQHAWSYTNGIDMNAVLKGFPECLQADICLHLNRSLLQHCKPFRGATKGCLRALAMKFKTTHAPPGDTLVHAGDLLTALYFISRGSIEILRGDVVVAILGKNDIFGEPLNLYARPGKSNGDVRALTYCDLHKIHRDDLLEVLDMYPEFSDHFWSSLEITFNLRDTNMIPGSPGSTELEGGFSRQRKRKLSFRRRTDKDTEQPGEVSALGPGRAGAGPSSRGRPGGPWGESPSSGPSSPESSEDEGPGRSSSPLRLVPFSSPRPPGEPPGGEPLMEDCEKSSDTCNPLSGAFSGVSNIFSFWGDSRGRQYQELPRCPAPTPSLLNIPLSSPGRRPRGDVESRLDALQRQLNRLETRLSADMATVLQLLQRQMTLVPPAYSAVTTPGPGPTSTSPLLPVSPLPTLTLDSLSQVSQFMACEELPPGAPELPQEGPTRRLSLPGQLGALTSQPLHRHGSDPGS
Assay: primary screen, population patch clamp on CHO cells stably expressing hERG; higher = less effect of the substance
Among all 310,000 compounds or so, about 14,000 (4.5%) showed an effect of 50% or more. Effects have a minus sign here. The sample holds strong results, similar compounds and a random draw of the others, so the mix is not that of the screen.
Dear colleague, please return just the value in %, with no unit written.

Ask: Which hERG current change (%, negative = inhibition) at 10uM is listed for `C[C@@H]1CN(C2CCN(Cc3nc(C(c4ccccc4)c4ccccc4)no3)CC2)C[C@H](C)O1` ?
Reply: -38.6

Ask: Which hERG current change (%, negative = inhibition) at 10uM is listed for `CCn1c(SCC(=O)Nc2ccccc2C)nnc1-c1ccccc1O` ?
Reply: 1.99

Ask: Which hERG current change (%, negative = inhibition) at 10uM is listed for `COc1ccc(CC(=O)Oc2ccc(C)cc2Br)cc1OC` ?
Reply: 3.25

Ask: Which hERG current change (%, negative = inhibition) at 10uM is listed for `O=C(CSCc1cccc(CSCC(=O)Nc2ccc3ccccc3c2)n1)Nc1ccc2ccccc2c1` ?
Reply: 9.54

Ask: Which hERG current change (%, negative = inhibition) at 10uM is listed for `CCOC(=O)C1(Cc2ccc(OC)cc2)CCN(C(=O)c2csc(C)n2)CC1` ?
Reply: 2.99

Ask: Which hERG current change (%, negative = inhibition) at 10uM is listed for `Cc1cccnc1CN1CCN(Cc2nc(C(c3ccccc3)c3ccccc3)no2)CC1` ?
Reply: -56.2

Ask: Which hERG current change (%, negative = inhibition) at 10uM is listed for Cc1cccn2c(=O)c3cc(C(=O)NCC4CCCO4)c(=N)n(C4CCCC4)c3nc12 (stereo not drawn) ?
Reply: -74.8

Ask: Which hERG current change (%, negative = inhibition) at 10uM is listed for `NC(=O)CCN1CCN(Cc2nc(C(c3ccccc3)c3ccccc3)no2)CC1` ?
Reply: -25.6

Ask: Which hERG current change (%, negative = inhibition) at 10uM is listed for `CC(=O)N1CCN(Cc2nc(C(c3ccccc3)c3ccccc3)no2)CC1` ?
Reply: 10.8

Data provenance is paper PMC4336329.
